All values here come from patent US12357650B2.

protocol_description: Pharmacokinetic profile of IUdR (20 mg/kg) with and without Tipiracil in rats following single oral administration
Assay type: in vivo, male Sprague-Dawley rats
condition_details: male, Sprague-Dawley, rat, plasma, oral, 20 mg/kg, PO-20 mg/kg Compound A alone or + 7.9 mg/kg Compound B, 0.083 hr, group mean, read-out: Plasma Concentration of Compound A, Mean
property_measured: concentration at 0.083 hr (ng/mL)

compound: O=c1[nH]c(=O)n([C@H]2C[C@H](O)[C@@H](CO)O2)cc1I [Compound A, 5-iodo-2′-deoxyuridine]
property_measured: concentration at 0.083 hr
measured_value: 21.9

---

protocol_description: Pharmacokinetic profile of IUdR (100 mg/kg) with and without Tipiracil in rats following single oral administration
Type: in vivo, male Sprague-Dawley rats
condition_details: male, Sprague-Dawley, rat, plasma, 100 mg/kg, single oral dose, Example 1, sub-heading prints PO-20 (Compound A) alone or + 7.9 (Compound B) mg/kg, individual animals

compound_smiles: O=c1[nH]c(=O)n([C@H]2C[C@H](O)[C@@H](CO)O2)cc1I
AUC(0-inf) [ng·h/mL]: 2630
